- assayed-system: FGFR3 (Homo sapiens (Human))
- Sequence (P22607 23-806): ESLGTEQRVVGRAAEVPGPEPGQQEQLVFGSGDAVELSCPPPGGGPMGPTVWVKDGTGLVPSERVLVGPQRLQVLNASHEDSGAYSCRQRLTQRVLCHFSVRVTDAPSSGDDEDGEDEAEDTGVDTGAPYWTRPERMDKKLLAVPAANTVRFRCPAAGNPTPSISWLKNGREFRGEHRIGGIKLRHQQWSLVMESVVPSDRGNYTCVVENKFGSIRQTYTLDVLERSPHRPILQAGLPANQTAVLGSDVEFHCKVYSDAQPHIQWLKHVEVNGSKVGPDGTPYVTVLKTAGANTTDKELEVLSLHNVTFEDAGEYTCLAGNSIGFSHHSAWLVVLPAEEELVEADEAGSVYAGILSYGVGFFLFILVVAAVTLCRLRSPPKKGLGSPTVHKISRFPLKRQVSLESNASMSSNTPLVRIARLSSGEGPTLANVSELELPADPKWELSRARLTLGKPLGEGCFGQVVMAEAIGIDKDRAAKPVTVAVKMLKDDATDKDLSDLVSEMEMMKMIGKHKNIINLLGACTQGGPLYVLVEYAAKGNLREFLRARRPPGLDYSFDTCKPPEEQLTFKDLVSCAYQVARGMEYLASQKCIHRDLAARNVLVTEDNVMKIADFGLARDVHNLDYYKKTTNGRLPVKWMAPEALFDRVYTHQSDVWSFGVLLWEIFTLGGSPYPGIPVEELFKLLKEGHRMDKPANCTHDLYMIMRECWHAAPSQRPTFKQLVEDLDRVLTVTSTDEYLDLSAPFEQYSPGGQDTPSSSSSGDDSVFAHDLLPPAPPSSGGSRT
- assay-procedure: FGFR3 in vitro kinase inhibitory activity assay (TRF, biotinylated Flt3 substrate)
- Assay type: biochemical
- run-parameters: read-out: IC50 less than 10 μM or at least 50% inhibition of the FGFR3 activity at a concentration of 10 μM
pIC50: −log10 of the molar value.
assay-metric: pIC50

Problem: # lookup: pIC50 of Cc1nc(C)n(-c2ccn3c(-c4cccc(NC(=O)NCC(F)(F)F)c4)cnc3c2)n1 [Example 414]
Solution: > 5.00
